src = patent US11493517B2

Test system: 3D-organoids of HNSCC derived from patient populations
Assay: Patient derived 3D-organoids chemosensitivity testing (CellTiter-Glo luminescence cell viability assay)
Format: cell-based
Details: Homo sapiens, read-out: IC50 range across samples, reduction of cell viability; patient derived HNSCC 3D-organoids, 72 h incubation, range over samples
pIC50: −log10 of the molar value.
quantityKind: pIC50

[[record]]
compound = "O=C(/C=C/c1ccccc1)NC(NC(=S)Nc1cccc2cccnc12)C(Cl)(Cl)Cl (stereo not shown) [Salubrinal]"
obsvalue = "3.80 to 4.80"

